Hello, the source for this data is patent EP0367040A1, in case you need it.

Tested on: rabbit papillary muscles
Run description: Electrically stimulated isolated papillary muscle (heart), contraction amplitude
Format: cell-based
Reported conditions: Oryctolagus cuniculus; 1 µM; isolated rabbit papillary muscle, electrically stimulated; read-out: El.stim. papillary muscle, % inhibition of 1 µM
Outcome measure: inhibition at 1 µM (%)

Compound	Experimental target	Outcome measure	Result
CC(CC(c1ccccc1)c1ccccc1)NC(C)(C)C (centres unmarked) [Terodiline, reference compound]	rabbit papillary muscles	inhibition at 1 µM	14
CC(C)N(CCCN(C)C(=O)C(c1ccccc1)c1ccccc1)C(C)C	rabbit papillary muscles	inhibition at 1 µM	9
CC(C)N(CCNC(=O)C(c1ccccc1)c1ccccc1)C(C)C	rabbit papillary muscles	inhibition at 1 µM	0
CC(C)N(CCN(C)C(=O)C(c1ccccc1)c1ccccc1)C(C)C.Cl [Example No 3, hydrochloride]	rabbit papillary muscles	inhibition at 1 µM	8
CN(CCCN(C)C(C)(C)C)C(=O)C(c1ccccc1)c1ccccc1.Cl [Example No 7, hydrochloride]	rabbit papillary muscles	inhibition at 1 µM	0
